Experimental Target: T1, human GFRAL (analyte in Biacore assays) (human, UniProt Q6UXV0 19-351, limits assumed)
T1 construct: injected in solution over captured antibody; also called hGFRAL
T1 sequence: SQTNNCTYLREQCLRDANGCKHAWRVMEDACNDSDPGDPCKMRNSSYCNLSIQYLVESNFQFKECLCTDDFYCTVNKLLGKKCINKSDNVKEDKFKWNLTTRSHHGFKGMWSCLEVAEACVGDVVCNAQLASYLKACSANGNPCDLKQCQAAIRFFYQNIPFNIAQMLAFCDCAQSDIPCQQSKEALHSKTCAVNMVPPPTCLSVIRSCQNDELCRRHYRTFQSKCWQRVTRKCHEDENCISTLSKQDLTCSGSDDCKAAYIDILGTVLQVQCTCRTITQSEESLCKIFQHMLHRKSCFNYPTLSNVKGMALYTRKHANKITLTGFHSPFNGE
Assay Comment: Biacore SPR, antibody captured, GFRAL injected
Metric Name: koff (s⁻¹)
Note: unit s⁻¹ is implicit; provide only the numeric part.

{"Binder": "antibody designated 8D8 (antibody, V domains shown, mouse hybridoma monoclonal) VH: QVQLKESGPGLVAPSQSLSITCTVSGFSLSRYSVHWVRQPPGKGLEWLGMIWGFGSTDYNSALKSRLSITKDNSKSQFFLKMNSLQTDDTAMYYCARIHTTAGSYWGQGTLVTVSA VL: DIVMTQSQKFMSTSIGDRVSVTCKASQNVGTNVAWYQQKPGQSPKALVYSTSYRYSGVPDRFTGSGSGTDFTLTISNVQSEDLAEYFCHQYNSYPLTFGAGTKLELK", "koff (s⁻¹)": 0.000124}

// next item, koff requested
**Query** Looking for the measured koff of antibody designated 24G2 (antibody, V domains shown, mouse hybridoma monoclonal) VH: QVQLQQSGAELLKPGASVKLSCKASGYTFTTYWMHWVKQRPGQGLEWIGMIHPNSGSSNYNEKFKNKATLTVDKSSSTAYMQLSSLTSEDSAVYFCARSDYGFIPYFDYWGQGTTLTVSS VL: DILLTQSPAILSVSPGERVSFSCRASQSIGTSIHWYQQRTNGSPRLLIKYASESISGIPSRFSGSGSGTDFTLIINSVESEDIADYYCQQSNSWPTFTFGAGTKLELK , can you help?
**Result** 0.000696

Reference source for all entries: patent US20170306031A1
